# method_summary: Apparent volume of distribution during terminal phase in Sprague-Dawley rat at 10 umol/kg, ig administered as single dose measured after 12 hrs by LC-MS/MS analysis
# Type: ADME
# stated_conditions: in vivo, po, dose 10 µmol/kg, read-out: Vz/F
readout_type: Vd/F (L/kg)
Reply numerically in L/kg, unit not repeated.

// recorded Vd/F for COc1cc2c(cc1OCC(F)(F)F)CCN1CC(CC(C)C)C(O)CC21 (configuration not stated) : 10.8

// recorded Vd/F for COc1cc2c(cc1OC)[C@H]1C[C@@H](O)[C@H](CC(C)C)CN1CC2 [DIHYDROTETRABENAZINE] : 10.5
